Biological target: T1, Histidine-tagged human Siglec-5 (NovoProtein) (human, UniProt O15389 17-434, limits assumed)
T1 construct: Bought protein; also called Siglec-5-his tagged protein; not shown: histidine tag
T1 sequence: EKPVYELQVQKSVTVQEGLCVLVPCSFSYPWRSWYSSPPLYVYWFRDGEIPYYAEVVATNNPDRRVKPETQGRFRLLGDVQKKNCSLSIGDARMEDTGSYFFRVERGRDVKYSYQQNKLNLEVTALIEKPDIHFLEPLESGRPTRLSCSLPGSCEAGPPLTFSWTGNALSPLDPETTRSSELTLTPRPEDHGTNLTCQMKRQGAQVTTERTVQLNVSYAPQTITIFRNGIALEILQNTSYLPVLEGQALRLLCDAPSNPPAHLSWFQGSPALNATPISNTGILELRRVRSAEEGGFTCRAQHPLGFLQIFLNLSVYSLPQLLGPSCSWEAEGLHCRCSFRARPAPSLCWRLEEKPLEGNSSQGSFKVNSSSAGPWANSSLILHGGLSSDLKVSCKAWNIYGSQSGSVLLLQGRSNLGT
Assay: SPR (BiaCore T200, 25 C), mAb captured on anti-mouse IgG, 15 nM His-tagged Siglec-5, single-concentration 1:1 fit
Provide the reported pKd of each item.
Remember, pKd is on a log scale: it is -log10 of the molar concentration.

Asked: May I ask what pKd has been recorded for anti-Siglec-5 monoclonal antibody 8C3 (antibody, IgG1, V domains shown) VH: QVQLQQSGGGLVKPGTSVKLSCKASGYIFTEYIIHWVKQRSGQGLEWIGWFYPGIISIKYNEKFKDKATLTADKSSSTVYMELSRLTSEDSAVYFCAGHEGYDGAMDYWGQGTSVTVSS VL: DVLMTQTPLSLPVSLGDQASISCRCSQSIVHSNGNTYLEWYLQKPGQSPKLLIYRVSNRFSGVPDRFSGSGSGTDFTLKISRVEAEDLGVYYCFQGSHVPWTFGGGTKLEIK ?
Given back: 10.37

Asked: What pKd value was documented for this binder, anti-Siglec-5 monoclonal antibody 9B1 (antibody, IgG1, V domains shown) VH: QVQLQQSGAELVKPGASVKLSCKASGYTFTEYTIHWVKQRSGQGLEWIGWFYPGSGSIKYNEKFKDKATLTADKSSSTVYMELSRLTSEDSAVYFCARQEEGGIGFDYWGQGTTLTVSS VL: DVLMTQTPLSLLVSLGDQASISCRSSQSIVHSNGNTYLEWYLQKPGQSPKLLIYKVSIRFSGVPDRFSGSGSGTDFTLKISRVEAEDLGVYYCFQGSHVPWTFGGGTKLEIK ?
Given back: 10.16

Asked: Need pKd of anti-Siglec-5 monoclonal antibody 5H2 (antibody, IgG1, V domains shown) VH: EVQLQQSGPELVKPGASVKVSCKASGYSFTDYNMYWVKQSHGKSLEWIGYIDPYNGGTSYNQKFKGKATLTVDKSSSTAFMLLNSLTSEDSAVYYCALYYDYDGIPYWGQGTLVTVSA VL: DIVMTQSQKFMSTSVGDRVSVTCKASQNVGTNVAWYRQKPGQSPKALIYSASYRYNGVPDRFTGSGSGTDFTLTISNVQSEDLAEYFCQQYNSYPYTFGGGTKLEIK , thanks.
Given back: 9.74

Asked: Sample anti-Siglec-5 monoclonal antibody 2G5 (antibody, IgG1, V domains shown) VH: EIQLQQSGPELVKPGASVKVSCKASGYSFTDYNMYWVKQSHGKSLEWIGYIDPYNGNTTYNQRFKGKATLTVDKSSSTAFMHLNSLTSEDAAVYYCATFYGFDGFAYWGQGSLVAVSA VL: QAVVTQESALTTSPGETVTLTCRSSTGAVTTSNYANWVQEKPDHLFTGLIGTTNNRAPGVPARFSGSLIGDKAALTITGAQTEDEAIYFCALWYSNHLVFGGGTKLTVLG — what was its pKd?
Given back: 10.09

Asked: Fill in: pKd of anti-Siglec-5 monoclonal antibody 11C6 (antibody, IgG1, V domains shown, also called 1106) VH: QVQLQQSGAELVKPGASVKLSCKASGYTFTEYTIHWVKQRSGQGLEWIGWFYPGSGSIKYNEKFKDKATLTAVKSSSTVYMEFSRLTSEDSAVYFCARQDYDGLGFAYWGQGTLVTVSA VL: DVLMTQTPLSLPVSLGDQASISCRSSQTIVHSNGNTYLEWYLQKPGQSPKLLIYKVSNRFSGVPDRFSGSGSGTDFTLKISRVEAEDLGVYYCFQGSHVPWTFGGGTKLEIK is ___
Given back: 9.78

Asked: What does the data say about its pKd? Entry: anti-Siglec-5 monoclonal antibody 10F9 (antibody, IgG1, V domains shown) VH: EIQLQQSGPELVKPGASVKVSCKASGYSFTGYNMYWVKQSHGKSFEWIGYIDPYTGGTSYNQRFKGKATLTVDKSSSTAFMHLNSLTSEDSAIYYCALFYDYDGFPYWGQGTLVTVSA VL: DIVMTQSQKFMSTSVGDRVSVTCKASQNVDTNVAWYQQKPGQSPKALIYSASYRYSGVPDRFTGSGSGTDFTLTISNVQSEDLAEYFCQQYNSYPYTFGGGTKLEIK
Given back: 9.98

Asked: What measured pKd goes with anti-Siglec-5 monoclonal antibody 9A5 (antibody, IgG1, V domains shown) VH: QVQLQQSGPELVEPGASVKVSCKASGYAFTSYNMYWVKQSHGKSLEWIGYIDPYNGGTYYDQKFKGRATLTVDKSSSTAHMHLNSLTSEDSAVYYCVFFYEYDGFPYWGQGTLVTVSA VL: DIVLTQSPTLMSASPGEKVTMTCSASSSVSYMYWYQQKPRSSPKPLIYLTSNLASGVPARFSGSGSGTSYSLTISSMEAEDAATYYCQQWSSNPLTFGAGTKLELK ?
Given back: 9.39

Asked: Item under review: anti-Siglec-5 monoclonal antibody 7A5 (antibody, IgG1, V domains shown) VH: EIQLQQSGPELVKPGASVKVSCKASGYSFTDYNMYWVKQSHGKSLEWIGYIDPYNGGTTYNQKFKGKATLTVDKSSSTAFMHLNSLTSEDSAVFYCAFYYGYYGVPYWGQGTLVTVSA VL: DIVMIQSQKFMSTSVGDRVSVTCKASQNVDTNVAWYQQKPGQSPKALIYSASYRYSGVPDRFTGSGSGTDFTLTISNVQSEDLAEYFCQQYNSFPLTFGSGTKLEIK . Reported pKd?
Given back: 9.95

Asked: What does the data say about its pKd? Entry: anti-Siglec-5 monoclonal antibody 8A1 (antibody, IgG1, V domains shown) VH: EIQLQQSGPELVKPGASVKVSCKASDYAFTSYNIYWVKQSHGKSLEWIGYIDPYNGGTSYNQTFKGKATLTVDKSSSTAYMHLNSLTSEDSAVYYCAMKVGYEAMDYWGQGTSVTVSS VL: DIVMTQSQKFMSTSVGDRVSVTCKASQNVGTYVAWYQQKPGQSPKALIYSASYRYSGVPDRFTGSGSGTDFTLNISNVQSEDLAEYFCQQFNSYPYTFGGGTKLEIK
Given back: 9.64

Asked: Which pKd value belongs to anti-Siglec-5 monoclonal antibody 11H3 (antibody, IgG1, V domains shown) VH: QVQLQQSGPELVKPGASVKVSCKASDYAFTSYNIYWVKQSHGKSLEWIGYIDPYNGGTSYNQTFKGKATLTVDKSSSTAYMHLNSLTSEDSAVYYCAMKVGYEAMDYWGQGTSVTVSS VL: DIQMTQSQKFMSTSVGDRVSVTCKASQNVGTNVAWYQQKPGQSPKALIYSASYRYSGVPDRFTGSGSGTDFTLNISNVQSEDLAEYFCQQFNSYPYTFGGGTKLEIK ?
Given back: 9.24

Asked: // lookup pKd for anti-Siglec-5 monoclonal antibody 10B6 (antibody, IgG1, V domains shown) VH: EIQLQQSGPELVKPGASVKVSCKASGYSFTDYNMYWVKQSHGKSLECFGYIDPYNGGPYYNQKFKGKATLTVDKSSSTAFMHLNSLTSEDSAVYYCAFYYGYYGVPYWGQGTLVTVSA VL: DIVMTQSQKFMSTSVGDRVSVTCKASHNVGTSVAWYQQKPGQSPKSLIYSASYRYSGVPDRFTGSGSGTDFTLTISNVQSEDLAEYFCQQYNSYPLTFGSGTKLEIK
Given back: 10.00
